Values from patent US20240392002A1

Target: T1, extracellular domain of human ROR1 (human, UniProt Q01973 30-406)
T1 construct: bought protein; biotinylated in the bivalent assay format; also called Acro Cat. No. RO1-H522y
T1 sequence (Q01973 30-406 limits assumed): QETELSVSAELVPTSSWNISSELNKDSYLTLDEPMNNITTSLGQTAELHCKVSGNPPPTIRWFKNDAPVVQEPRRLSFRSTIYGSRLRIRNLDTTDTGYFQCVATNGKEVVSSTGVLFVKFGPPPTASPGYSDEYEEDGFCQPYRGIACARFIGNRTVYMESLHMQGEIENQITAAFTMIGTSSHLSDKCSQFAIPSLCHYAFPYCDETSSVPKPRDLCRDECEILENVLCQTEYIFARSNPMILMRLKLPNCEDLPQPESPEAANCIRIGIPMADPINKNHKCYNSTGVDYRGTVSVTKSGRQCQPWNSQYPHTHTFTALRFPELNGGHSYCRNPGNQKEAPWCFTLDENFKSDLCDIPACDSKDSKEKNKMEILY
Experiment: BLI, IgG1 on biosensor, soluble ROR ectodomain
property: binding result

Below: 5 binders and their reported binding result.
>  <binder>
I2C-14 IgG1 (antibody, V domains shown, human IgG1) VH: EVQLVESGGGLVQPGGSLRLSCAASGFTFESYDIHWVRQAPGKGLEWVAAIFSYGGYTTYADSVKGRFTISADTSKNTAYLQMNSLRAEDTAVYYCARGSYGDGRGMDYWGQGTLVTVSS VL: DIQMTQSPSSLSASVGDRVTITCRASQSVSSAVAWYQQKPGKAPKLLIYSASSLYSGVPSRFSGSRSGTDFTLTISSLQPEDFATYYCQQYYYWPGTFGQGTKVEIK

>  <binding result>
binds

$$$$
>  <binder>
I2A-25 IgG1 (antibody, V domains shown, human IgG1) VH: EVQLVESGGGLVQPGGSLRLSCAASGFTFYGYTIHWVRQAPGKGLEWVAAIYPYTDSTRYADSVKGRFTISADTSKNTAYLQMNSLRAEDTAVYYCARDYRRALDYWGQGTLVTVSS VL: DIQMTQSPSSLSASVGDRVTITCRASQSVSSAVAWYQQKPGKAPKLLIYSASSLYSGVPSRFSGSRSGTDFTLTISSLQPEDFATYYCQQYTDFPWTFGQGTKVEIK

>  <binding result>
binds

$$$$
>  <binder>
I2A-19 IgG1 (antibody, V domains shown, human IgG1) VH: EVQLVESGGGLVQPGGSLRLSCAASGFTFSSYFIHWVRQAPGKGLEWVAWIYPSGSYTYYADSVKGRFTISADTSKNTAYLQMNSLRAEDTAVYYCAREMDRVGYSGMDYWGQGTLVTVSS VL: DIQMTQSPSSLSASVGDRVTITCRASQSVSSAVAWYQQKPGKAPKLLIYSASSLYSGVPSRFSGSRSGTDFTLTISSLQPEDFATYYCQQYRTPLGTFGQGTKVEIK

>  <binding result>
binds

$$$$
>  <binder>
I2C-18 IgG1 (antibody, V domains shown, human IgG1) VH: EVQLVESGGGLVQPGGSLRLSCAASGFTFAGYPIHWVRQAPGKGLEWVAAIDPDGGYTYYADSVKGRFTISADTSKNTAYLQMNSLRAEDTAVYYCARHTGFHRYRGMDYWGQGTLVTVSS VL: DIQMTQSPSSLSASVGDRVTITCRASQSVSSAVAWYQQKPGKAPKLLIYSASSLYSGVPSRFSGSRSGTDFTLTISSLQPEDFATYYCQQYYWFPPTFGQGTKVEIK

>  <binding result>
binds

$$$$
>  <binder>
I2A-3 IgG1 (antibody, V domains shown, human IgG1) VH: EVQLVESGGGLVQPGGSLRLSCAASGFTFTSYEIHWVRQAPGKGLEWVAHIDPYGGYTQYADSVKGRFTISADTSKNTAYLQMNSLRAEDTAVYYCARRGVAVFDYWGQGTLVTVSS VL: DIQMTQSPSSLSASVGDRVTITCRASQSVSSAVAWYQQKPGKAPKLLIYSASSLYSGVPSRFSGSRSGTDFTLTISSLQPEDFATYYCQQWAYAPVTFGQGTKVEIK

>  <binding result>
binds

$$$$

Which value of binding result has been reported for I2A-32 IgG1 (antibody, V domains shown, human IgG1) VH: EVQLVESGGGLVQPGGSLRLSCAASGFTFQSYVIHWVRQAPGKGLEWVAAIYPYSSSTIYADSVKGRFTISADTSKNTAYLQMNSLRAEDTAVYYCARSWSVYLGMDYWGQGTLVTVSS VL: DIQMTQSPSSLSASVGDRVTITCRASQSVSSAVAWYQQKPGKAPKLLIYSASSLYSGVPSRFSGSRSGTDFTLTISSLQPEDFATYYCQQSYDSPRTFGQGTKVEIK in the records? binds

Which value of binding result has been reported for I2C-23 IgG1 (antibody, V domains shown, human IgG1) VH: EVQLVESGGGLVQPGGSLRLSCAASGFTFSSYEIHWVRQAPGKGLEWVASIYPFSGDTYYADSVKGRFTISADTSKNTAYLQMNSLRAEDTAVYYCARPGRAIYYAVMDYWGQGTLVTVSS VL: DIQMTQSPSSLSASVGDRVTITCRASQSVSSAVAWYQQKPGKAPKLLIYSASSLYSGVPSRFSGSRSGTDFTLTISSLQPEDFATYYCQQAGSHLFTFGQGTKVEIK in the records? binds

Which value of binding result has been reported for I2C-21 IgG1 (antibody, V domains shown, human IgG1) VH: EVQLVESGGGLVQPGGSLRLSCAASGFTFSSYYIHWVRQAPGKGLEWVAWIDPYISYTYYADSVKGRFTISADTSKNTAYLQMNSLRAEDTAVYYCARDSELVSGYAMDYWGQGTLVTVSS VL: DIQMTQSPSSLSASVGDRVTITCRASQSVSSAVAWYQQKPGKAPKLLIYSASSLYSGVPSRFSGSRSGTDFTLTISSLQPEDFATYYCQQGDSSLVTFGQGTKVEIK in the records? no binding

Which value of binding result has been reported for I2C-25 IgG1 (antibody, V domains shown, human IgG1) VH: EVQLVESGGGLVQPGGSLRLSCAASGFTFSDYYIHWVRQAPGKGLEWVAYIAPYGGFTYYADSVKGRFTISADTSKNTAYLQMNSLRAEDTAVYYCARDSYRRGYVSGFDYWGQGTLVTVSS VL: DIQMTQSPSSLSASVGDRVTITCRASQSVSSAVAWYQQKPGKAPKLLIYSASSLYSGVPSRFSGSRSGTDFTLTISSLQPEDFATYYCQQRYSSPSTFGQGTKVEIK in the records? no binding

Which value of binding result has been reported for I2C-7 IgG1 (antibody, V domains shown, human IgG1) VH: EVQLVESGGGLVQPGGSLRLSCAASGFTFDSYYIHWVRQAPGKGLEWVAWIDPYGLDTKYADSVKGRFTISADTSKNTAYLQMNSLRAEDTAVYYCAREPGDYGMDYWGQGTLVTVSS VL: DIQMTQSPSSLSASVGDRVTITCRASQSVSSAVAWYQQKPGKAPKLLIYSASSLYSGVPSRFSGSRSGTDFTLTISSLQPEDFATYYCQQAYGSLLTFGQGTKVEIK in the records? no binding
